- System: Citrobacter freundii
- ASSAY_EXPLANATION: MIC against clinically isolated aerobic Gram-negative strains
- Type: cell-based
- REPORTED_CONDITIONS: 14 strains
MEASURED_PARAMETER: MIC Range

>  <COMPOUND>
C[C@@H](O)[C@H]1C(=O)N2C(C(=O)O)=C(SCCN=CN)C[C@H]12 [IPM, Imipenem]

>  <ASSAYED_SYSTEM>
Citrobacter freundii

>  <TEST_VALUE>
0.06 to 0.5 µg/mL

$$$$
>  <COMPOUND>
C[C@@H](O)[C@H]1C(=O)N2C(C(=O)O)=C(S[C@@H]3CN[C@H](C(=O)N(C)C)C3)[C@H](C)[C@H]12 [MPM, meropenem]

>  <ASSAYED_SYSTEM>
Citrobacter freundii

>  <TEST_VALUE>
0.015 to 0.06 µg/mL

$$$$
>  <COMPOUND>
C[C@@H](O)[C@H]1C(=O)N2C(C(=O)O)=C(S[C@@H]3CN[C@H](C(=O)Nc4cccc(C(=O)O)c4)C3)[C@H](C)[C@H]12 [EPM, ertapenem]

>  <ASSAYED_SYSTEM>
Citrobacter freundii

>  <TEST_VALUE>
0.008 to 0.5 µg/mL

$$$$
>  <COMPOUND>
C[C@@H](O)[C@H]1C(=O)N2C(C(=O)O)=C(S[C@@H]3CN[C@H](/C=C/c4cc(C(=O)O)no4)C3)[C@H](C)[C@H]12 [Example]

>  <ASSAYED_SYSTEM>
Citrobacter freundii

>  <TEST_VALUE>
0.015 to 0.25 µg/mL

$$$$

###

Below: a set of entries, each annotated with reported MIC Range.
- Test system: Moraxella catarrhalis
- ASSAY_EXPLANATION: MIC against clinically isolated aerobic Gram-negative strains
- Type: cell-based
- REPORTED_CONDITIONS: 24 strains
MEASURED_PARAMETER: MIC Range

>  <COMPOUND>
C[C@@H](O)[C@H]1C(=O)N2C(C(=O)O)=C(S[C@@H]3CN[C@H](C(=O)N(C)C)C3)[C@H](C)[C@H]12 [MPM, meropenem]

>  <TEST_VALUE>
8 to 30 ng/mL

$$$$
>  <COMPOUND>
C[C@@H](O)[C@H]1C(=O)N2C(C(=O)O)=C(S[C@@H]3CN[C@H](C(=O)Nc4cccc(C(=O)O)c4)C3)[C@H](C)[C@H]12 [EPM, ertapenem]

>  <TEST_VALUE>
8 to 120 ng/mL

$$$$
>  <COMPOUND>
C[C@@H](O)[C@H]1C(=O)N2C(C(=O)O)=C(S[C@@H]3CN[C@H](/C=C/c4cc(C(=O)O)no4)C3)[C@H](C)[C@H]12 [Example]

>  <TEST_VALUE>
15 to 60 ng/mL

$$$$
>  <COMPOUND>
C[C@@H](O)[C@H]1C(=O)N2C(C(=O)O)=C(SCCN=CN)C[C@H]12 [IPM, Imipenem]

>  <TEST_VALUE>
8 to 250 ng/mL

$$$$

###

- System: Clostridium difficile
- ASSAY_EXPLANATION: MIC against clinically isolated anaerobic Gram-positive strains
- Format: cell-based
- REPORTED_CONDITIONS: Clostridioides difficile, 15 strains

>  <STRUCTURE_AS_SMILES>
C[C@@H](O)[C@H]1C(=O)N2C(C(=O)O)=C(S[C@@H]3CN[C@H](C(=O)Nc4cccc(C(=O)O)c4)C3)[C@H](C)[C@H]12

>  <MIC50 / µg/mL>
4

$$$$
>  <STRUCTURE_AS_SMILES>
C[C@@H](O)[C@H]1C(=O)N2C(C(=O)O)=C(S[C@@H]3CN[C@H](C(=O)N(C)C)C3)[C@H](C)[C@H]12

>  <MIC50 / µg/mL>
1

$$$$
>  <STRUCTURE_AS_SMILES>
C[C@@H](O)[C@H]1C(=O)N2C(C(=O)O)=C(S[C@@H]3CN[C@H](/C=C/c4cc(C(=O)O)no4)C3)[C@H](C)[C@H]12

>  <MIC50 / µg/mL>
4

$$$$
>  <STRUCTURE_AS_SMILES>
C[C@@H](O)[C@H]1C(=O)N2C(C(=O)O)=C(SCCN=CN)C[C@H]12

>  <MIC50 / µg/mL>
8

$$$$

###

- Tested on: Streptococcus agalactiae
- ASSAY_EXPLANATION: MIC against clinically isolated aerobic Gram-positive strains
- Assay type: cell-based
- REPORTED_CONDITIONS: 15 strains
MEASURED_PARAMETER: MIC Range

>  <STRUCTURE_AS_SMILES>
C[C@@H](O)[C@H]1C(=O)N2C(C(=O)O)=C(S[C@@H]3CN[C@H](C(=O)Nc4cccc(C(=O)O)c4)C3)[C@H](C)[C@H]12

>  <MEASURED_PARAMETER>
MIC Range

>  <TEST_VALUE>
0.03 to 0.06 µg/mL

$$$$
>  <STRUCTURE_AS_SMILES>
C[C@@H](O)[C@H]1C(=O)N2C(C(=O)O)=C(S[C@@H]3CN[C@H](C(=O)N(C)C)C3)[C@H](C)[C@H]12

>  <MEASURED_PARAMETER>
MIC Range

>  <TEST_VALUE>
0.03 µg/mL

$$$$
>  <STRUCTURE_AS_SMILES>
C[C@@H](O)[C@H]1C(=O)N2C(C(=O)O)=C(SCCN=CN)C[C@H]12

>  <MEASURED_PARAMETER>
MIC Range

>  <TEST_VALUE>
0.008 to 0.015 µg/mL

$$$$
>  <STRUCTURE_AS_SMILES>
C[C@@H](O)[C@H]1C(=O)N2C(C(=O)O)=C(S[C@@H]3CN[C@H](/C=C/c4cc(C(=O)O)no4)C3)[C@H](C)[C@H]12

>  <MEASURED_PARAMETER>
MIC Range

>  <TEST_VALUE>
0.008 to 0.015 µg/mL

$$$$

###

- Test system: Haemophilus influenzae
- ASSAY_EXPLANATION: MIC against clinically isolated aerobic Gram-negative strains
- Format: cell-based
- REPORTED_CONDITIONS: 24 strains

>  <STRUCTURE_AS_SMILES>
C[C@@H](O)[C@H]1C(=O)N2C(C(=O)O)=C(S[C@@H]3CN[C@H](C(=O)Nc4cccc(C(=O)O)c4)C3)[C@H](C)[C@H]12

>  <MIC Range>
0.12 to 1 µg/mL

$$$$
>  <STRUCTURE_AS_SMILES>
C[C@@H](O)[C@H]1C(=O)N2C(C(=O)O)=C(S[C@@H]3CN[C@H](/C=C/c4cc(C(=O)O)no4)C3)[C@H](C)[C@H]12

>  <MIC Range>
0.25 to 8 µg/mL

$$$$
>  <STRUCTURE_AS_SMILES>
C[C@@H](O)[C@H]1C(=O)N2C(C(=O)O)=C(S[C@@H]3CN[C@H](C(=O)N(C)C)C3)[C@H](C)[C@H]12

>  <MIC Range>
0.06 to 1 µg/mL

$$$$
>  <STRUCTURE_AS_SMILES>
C[C@@H](O)[C@H]1C(=O)N2C(C(=O)O)=C(SCCN=CN)C[C@H]12

>  <MIC Range>
0.25 to 8 µg/mL

$$$$

###

- Tested on: Pseudomonas aeruginosa
- ASSAY_EXPLANATION: MIC against clinically isolated aerobic Gram-negative strains
- Format: cell-based
- REPORTED_CONDITIONS: 60 strains
MEASURED_PARAMETER: MIC50 (µg/mL)

>  <STRUCTURE_AS_SMILES>
C[C@@H](O)[C@H]1C(=O)N2C(C(=O)O)=C(S[C@@H]3CN[C@H](/C=C/c4cc(C(=O)O)no4)C3)[C@H](C)[C@H]12

>  <MEASURED_PARAMETER>
MIC50

>  <TEST_VALUE>
4

$$$$
>  <STRUCTURE_AS_SMILES>
C[C@@H](O)[C@H]1C(=O)N2C(C(=O)O)=C(S[C@@H]3CN[C@H](C(=O)Nc4cccc(C(=O)O)c4)C3)[C@H](C)[C@H]12

>  <MEASURED_PARAMETER>
MIC50

>  <TEST_VALUE>
32

$$$$
>  <STRUCTURE_AS_SMILES>
C[C@@H](O)[C@H]1C(=O)N2C(C(=O)O)=C(SCCN=CN)C[C@H]12

>  <MEASURED_PARAMETER>
MIC50

>  <TEST_VALUE>
2

$$$$
>  <STRUCTURE_AS_SMILES>
C[C@@H](O)[C@H]1C(=O)N2C(C(=O)O)=C(S[C@@H]3CN[C@H](C(=O)N(C)C)C3)[C@H](C)[C@H]12

>  <MEASURED_PARAMETER>
MIC50

>  <TEST_VALUE>
2

$$$$
